B1: ZNF24 (parent)
chain: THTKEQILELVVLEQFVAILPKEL

# Variants of: B1
# protocol-summary: protein stability index of a GFP-peptide fusion (GPS, HEK-293T) (PSI 1-6); higher = more stable;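 further: lentivirally expressed fusions sorted by FACS into six bins by GFP to DsRed ratio, PSI derived from sequencing read proportions per bin multiplied by bin number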
# experimental-conditions: c terminus: a fixed tail appended
Recorded measurements of protein stability index, one per entry
readout: protein stability index

- mutation-annotation: "I7F"
  reported: 2.54
- mutation-annotation: "F16S"
  reported: 2.27
- mutation-annotation: "E5K"
  reported: 2.23
- mutation-annotation: "V11F"
  reported: 3.28
- mutation-annotation: "L20T"
  reported: 2.44
- mutation-annotation: "K22A"
  reported: 2.63
- mutation-annotation: "L10Q"
  reported: 2.26
- mutation-annotation: "P21K"
  reported: 3.31
- mutation-annotation: "L24W"
  reported: 2.54
- mutation-annotation: "V12A"
  reported: 1.83
- mutation-annotation: "Q6V"
  reported: 3.24
- mutation-annotation: "V12D"
  reported: 2.27
- mutation-annotation: "T3C"
  reported: 1.53
- mutation-annotation: "F16M"
  reported: 2.5
- mutation-annotation: "K4F"
  reported: 4.57
- mutation-annotation: "A18G"
  reported: 2.88
- mutation-annotation: "I7G"
  reported: 1.76
- mutation-annotation: "V17C"
  reported: 2.49
- mutation-annotation: "K4G"
  reported: 3.12
- mutation-annotation: "K22N"
  reported: 2.39
- mutation-annotation: "E14Q"
  reported: 2.97
- mutation-annotation: "E5F"
  reported: 2.12
